All figures here come from PubChem BioAssay (NCI).

Tested on: SW-620 colon
Test: NCI-60 one-dose screen, 48 h (100 = growth as untreated, 0 = no growth, -100 = all killed)
Settings: 10 µM unless noted
The panel holds about 83,000 compounds, 20% with a hit somewhere; the sample as a whole holds those more often.
Returns one of Criterion met or Criterion not met; Criterion met when growth is >= 60%.

# count of solved cases: 5
CC(=O)Nc1ccc(-n2cnc3cc(-c4ccc(OCCN5CCCCC5)cc4)ccc32)cc1	Criterion not met
C#CCNC(=O)[C@]1(C)CC[C@]2(C)CC[C@@H]3C(=CC[C@H]4[C@@]3(C)CC[C@H]3C(C)(C)C(=O)CC[C@]43C)[C@@H]2C1	Criterion met
C=C(C)[C@@H]1CC[C@]2(C(=O)N3CCN(C)CC3)CC[C@]3(C)[C@H](CC[C@@H]4[C@@]5(C)CC[C@H](OCCC#N)C(C)(C)[C@@H]5CC[C@]43C)[C@@H]12	Criterion not met
c1ccc2cc(Cn3c(-c4cccc5ccccc45)[n+](Cc4ccc5ccccc5c4)c4c5ccccc5c5ccccc5c43)ccc2c1	Criterion not met
COc1ccc(OC)c(-c2cc(-c3ccc(Cl)cc3)c3c(N)c(C(=O)c4ccc(Cl)cc4)sc3n2)c1	Criterion met

Task item: Given the entry Cc1cc2c(C(=O)NCC#N)cccc2n1-c1nc2c(c(NCc3ccccc3)n1)CCCC2 , answer whether its growth meets or surpasses 60%.
Reply: Criterion not met

Task item: Given the entry Oc1cccc(CCc2ccc(Oc3cc(CCc4cccc(O)c4)cc(O)c3O)cc2)c1 , answer whether its growth meets or surpasses 60%.
Reply: Criterion met
